# METHOD_SUMMARY: Plasma levels after i.p. administration
# Type: in vivo, mice
# RUN_PARAMETERS: mouse, plasma, ip; two hours after 1 mg i.p.

| COMPOUND | concentration at 2 h / ng/mL |
| --- | --- |
| O=C(C(=O)c1ccc(O)cc1)c1ccc(O)cc1 [DHB, 4,4′-dihydroxybenzil] | 550 |

The measurements presented in this section are drawn from patent US9273115B2.
